Let's go through some recorded pIC50 values for HIV-1 integrase (Human immunodeficiency virus type 1 group M subtype B) together.
Answer as the number alone; pIC50 is minus log10 of concentration in mol/L.

These solved cases illustrate the format of a correct answer.
1) O=C(c1ccccc1O)c1ccccc1O [2,2′-dihydroxybenzophenone]    4.15
2) O=C(c1cc(O)c(O)cc1O)c1ccc(O)c(O)c1O    4.42

# input for lookup
Inquiry: Please report pIC50 for the following molecule: O=C(c1ccc(O)c(O)c1O)c1ccc(O)c(O)c1O [2,3,4,2′,3′,4′-hexahydroxybenzophenone]
Reply text: 4.48

----------
Test system: MCF7
Test: MTT in vitro tumor cell inhibition
Assay type: cell-based
Conditions: MCF7, 10^−5 g/ml, 3 days
Quantity name: Inhibitory rate % (%)
Quick reminder: number only, in %, skip the unit.

Worked cases, answers included:
1. O=C(c1ccccc1)c1ccc(O)c(O)c1O [2,3,4-trihydroxybenzophenone]    38.60
2. O=C(c1ccc(O)c(O)c1O)c1ccc(O)c(O)c1O [2,3,4,2′,3′,4′-hexahydroxybenzophenone]    43.52
3. O=C(c1cc(O)c(O)cc1O)c1ccc(O)c(O)c1O    35.48

API: the following record is the query input.
Inquiry: Please supply the value of reported Inhibitory rate % for the item O=C(c1ccccc1)c1ccc(O)cc1O [2,4-dihydroxybenzophenone]
Reply text: 68.62

Values were extracted from patent US10716769B2.
